Where these numbers come from: patent US20210261671A1

target.entity: T1, human FLT3 protein (human, UniProt P36888 27-541, limits assumed)
T1 construct: protein coated in the screening ELISA; also called ELISA FLT3
assay.summary: colorimetric ELISA, periplasmic extract
Reported ELISA FLT3 (absorbance) by item:
Just the number please, in absorbance, no unit attached.

binder | units.symbol | ELISA FLT3 (absorbance)
FLL99 (VHH, llama anti-FLT3 variable domain; E. coli periplasmic extract) VHH: QVQLQESGGGLVQAGGSLRLSCAVSGRTFSGFGTGWFRQAPGKEREFVAAISWDGGRTHYADFVKGRFTISRDNAKNTVYLQMNSLKPEDTAVYYCAAQVARAYDSRWYSGGDYWGQGTQVTVSS | absorbance | 3.7

Now look at this one.
Entry under review: FLL76 (VHH, llama anti-FLT3 variable domain; E. coli periplasmic extract) VHH: QVQLQESGGGLVQAGGSLRLSCAASGGAFSSYVMGWFRQAPGKEREFVAAVISWSGRITDYADSVKGRFSISRDNAKSTVYLQMNNLKPEDTAVYYCAAKTGMYIDLRTSTFDYWGQGTQVTVSS . Reported ELISA FLT3 (absorbance)?
0.5
